The values you see were collected from patent US20240254206A1.

test_target: 2CC-core
assay_explanation: SPR, antigen on chip, IgG injected
Kind request: treat 100000 M⁻¹ s⁻¹ as inclusive, so kon at 100000 M⁻¹ s⁻¹ or higher is Yes, anything lower is No.

Please review the entries below; each comes with its answer.
| binder | class_name |
| --- | --- |
| 12A12 (antibody, V domains shown, also called 12A12HC; 12a12kc) VH: SQQLVQSGTQVKKPGASVRISCQASGYSFTDYVLHWWRQAPGQGLEWMGWIKPVYGARNYARRFQGRINFDRDIYREIAFMDLSGLRSDDTALYFCARDGSGDDTSWHLDPWGQGTLVIVSA VL: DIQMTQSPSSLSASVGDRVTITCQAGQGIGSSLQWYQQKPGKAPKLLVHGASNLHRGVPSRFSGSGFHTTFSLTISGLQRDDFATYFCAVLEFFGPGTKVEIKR | No |
| 3BNC60 (antibody, V domains shown, also called 3BNC60HC; 3BNC60KC) VH: QVHLSQSGAAVTKPGASVRVSCEASGYKISDHFIHWWRQAPGQGLQWVGWINPKTGQPNNPRQFQGRVSLTRQASWDFDTYSFYMDLKAVRSDDTAIYFCARQRSDFWDFDVWGSGTQVTVSSASTKG VL: DIQMTQSPSSLSARVGDTVTITCQANGYLNWYQQRRGKAPKLLIYDGSKLERGVPARFSGRRWGQEYNLTINNLQPEDVATYFCQVYEFIVPGTRLDLKRTVAA | No |
| 8ANC131 (antibody, V domains shown, also called 8ANC131HC; 8ANC131KC) VH: QGQLVQSGGGLKKPGTSVTISCLASEYTFNEFVIHWIRQAPGQGPLWLGLIKRSGRLMTAYNFQDRLRLRRDRSTGTVFMELRGLRPDDTAVYYCARDGLGEVAPDYRYGIDVWGQGSTVIVTA VL: EIVLTQSPATLSLSPGERATLSCRASQGLNFVVWYQQKRGQAPRLLIHAPSGRAPGVPDRFSARGSGTEFSLVISSVEPDDFAIYYCQEYSSTPYNFGPGTRVDRKR | No |
| NIH45-46 (antibody, V domains shown) VH: QVRLSQSGGQMKKPGESMRLSCRASGYEFLNCPINWIRLAPGRRPEWMGWLKPRGGAVNYARKFQGRVTMTRDVYSDTAFLELRSLTSDDTAVYFCTRGKYCTARDYYNWDFEH VL: EIVLTQSPATLSLSPGETAIISCRTSQSGSLAWYQQRPGQAPRLVIYSGSTRAAGIPDRFSGSRWGADYNLSISNLESGDFGVYYCQQYEFFG | Yes |

Does the binder 12A21 (antibody, V domains shown, also called 12A21HC; 12a21kc) VH: SQHLVQSGTQVKKPGASVRVSCQASGYTFTNYILHWWRQAPGQGLEWMGLIKPVFGAVNYARQFQGRIQLTRDIYREIAFLDLSGLRSDDTAVYYCARDESGDDLKWHLHPWGQGTQVIVSP VL: DIQMTQSPSSLSASVGDRVTINCQAGQGIGSSLNWYQKKPGRAPKLLVHGASNLQRGVPSRFSGSGFHTTFTLTISSLQPDDVATYFCAVFQWFGPGTKVDIKR have recorded kon that is 100000 M⁻¹ s⁻¹ or more?
Yes
